- Tested on: Enterobacter cloacae
- ASSAY_TEXT: Antimicrobial activity against Enterobacter cloacae at 1 umol/spot after 18 hrs by TLC-bioautographic method
- Format: functional
METRIC: inhibition zone (IZ)

STRUCTURE_STRING: CN[C@@H]1[C@H](O[C@H]2[C@H](O[C@H]3[C@H](O)[C@@H](O)[C@H](N=C(N)N)[C@@H](O)[C@@H]3N=C(N)N)O[C@@H](C)[C@]2(O)C=O)O[C@@H](CO)[C@H](O)[C@H]1O
EXPERIMENTAL_TARGET: Enterobacter cloacae
OBSERVED_MEASUREMENT: 0.07 millimeter

Lab note: next compound to report on.
According to the records, this compound COc1ccccc1/C=C/C(=O)c1ccc(Nc2nc(Nc3ccccc3)nc(Nc3ccccc3)n2)cc1 displays inhibition zone (IZ) of 0.08 millimeter
